- systemName: human thyroid hormone receptors TRβ1 (Homo sapiens)
- Sequence (P10828 whole entry): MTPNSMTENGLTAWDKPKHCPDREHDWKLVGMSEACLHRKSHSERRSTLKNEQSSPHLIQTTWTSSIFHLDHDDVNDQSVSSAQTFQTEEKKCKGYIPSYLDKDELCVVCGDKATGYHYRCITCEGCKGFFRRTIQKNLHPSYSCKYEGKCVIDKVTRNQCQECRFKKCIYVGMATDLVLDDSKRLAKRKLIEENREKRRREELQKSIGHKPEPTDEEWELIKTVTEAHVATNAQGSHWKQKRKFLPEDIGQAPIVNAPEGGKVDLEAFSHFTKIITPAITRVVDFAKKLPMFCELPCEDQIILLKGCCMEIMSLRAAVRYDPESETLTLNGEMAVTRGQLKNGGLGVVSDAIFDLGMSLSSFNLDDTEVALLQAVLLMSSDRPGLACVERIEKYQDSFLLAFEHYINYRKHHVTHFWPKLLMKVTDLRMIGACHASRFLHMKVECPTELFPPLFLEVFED
- Sequence (P19793 whole entry partner): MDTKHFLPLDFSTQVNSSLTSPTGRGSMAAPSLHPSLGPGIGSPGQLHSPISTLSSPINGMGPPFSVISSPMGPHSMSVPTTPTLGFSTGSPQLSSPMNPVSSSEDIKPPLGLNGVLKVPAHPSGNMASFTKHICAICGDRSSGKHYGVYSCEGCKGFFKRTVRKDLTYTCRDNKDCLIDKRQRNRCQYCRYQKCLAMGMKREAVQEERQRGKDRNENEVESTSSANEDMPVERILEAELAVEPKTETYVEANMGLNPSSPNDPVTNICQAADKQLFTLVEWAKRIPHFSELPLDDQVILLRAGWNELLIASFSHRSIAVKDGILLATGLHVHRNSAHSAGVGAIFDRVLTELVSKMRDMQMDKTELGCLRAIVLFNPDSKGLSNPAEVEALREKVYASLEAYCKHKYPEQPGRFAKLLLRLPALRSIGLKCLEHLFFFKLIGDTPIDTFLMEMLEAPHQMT
- measurementProtocol: Receptor binding, scintillation proximity assay (SPA) with labeled T3; T3 binding also by gel filtration
- particulars: SPA data; read-out: Ki TRβ
- Procedure: Methods: Baculoviruses expressing TRα1, TRβ1 and RXRα were generated using cDNA and other reagents from Invitrogen (Carlsbad, Calif.). To produce TR/RXR heterodimer proteins, the sf9 insect cells were first grown to a density of 1−5×10^5 cells/mL. TRα1 or TRβ1 and RXRα baculovirus stocks were added to the cell culture with a ratio of 1 to 1 (multiplicity of infection=10). The cells were harvested three days after the infection. […]
pKi: −log10 of the molar value.
measurementKind: pKi

## Task Given the compound Cc1cc(CCP(=O)(O)O)cc(C)c1Cc1ccc(F)c(C(C)C)c1 [Compound 42-2] , what is its reported pKi?
## Result < 5.70
